All figures here come from the supplement of paper PMC10567573.

B1: C10orf62 (parent)
chain: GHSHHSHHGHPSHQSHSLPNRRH

Variants of: B1
Assay: protein stability index of a GFP-peptide fusion (GPS, HEK-293T) (PSI 1-6); higher = more stable;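 note: lentivirally expressed fusions sorted by FACS into six bins by GFP to DsRed ratio, PSI derived from sequencing read proportions per bin multiplied by bin number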
Conditions: c terminus: native
observed-property: protein stability index
// print number alone

protein stability index lookup needed for `N20L` , thanks.
3.05

protein stability index lookup needed for `P11N` , thanks.
2.98

protein stability index lookup needed for `H13T` , thanks.
3.08

protein stability index lookup needed for `H4V` , thanks.
2.93

Shifting focus to the variant that follows.
protein stability index lookup needed for `H16S` , thanks.
3
